Item-by-item account of EC50
- TARGET_ENTITY: human GPR52 (Homo sapiens)
- MEASUREMENT_PROTOCOL: HTRF assay for direct cAMP measurement
- RUN_PARAMETERS: CHO-K1 cells stably expressing recombinant human GPR52, mean EC50
Answer format: numeric, nM implied, no suffix.

Here's what some known entries look like.
COMPOUND_STRUCTURE_STRING | EC50 (nM)
Cc1cc(NC(=O)c2nccnc2N2CC(Oc3ccc(F)c(F)c3)C2)ncn1 | 5
Cc1cc(NC(=O)c2nccnc2N2CC(Oc3cc(F)cc(F)c3)C2)ncn1 | 12
Cc1cc(NC(=O)c2nccnc2N2CC(Oc3ccc(F)c(F)c3)C2)cnn1 | 3
Cc1cc(NC(=O)c2nccnc2N2CC(Oc3cc(F)c(F)c(F)c3)C2)cnn1 | 5
Cc1cc(NC(=O)c2nccnc2N2CC(Oc3cc(F)cc(Cl)c3)C2)cnn1 | 4

Enquiry: What reported EC50 corresponds to CCc1cc(NC(=O)c2nccnc2N2CC(Oc3cc(F)c(F)c(F)c3)C2)ncn1 on human GPR52 (Homo sapiens)?
Return: 6

Enquiry: What measured EC50 is associated with CCc1cc(NC(=O)c2nccnc2N2CC(Oc3cc(F)cc(C(F)(F)F)c3)C2)cnn1 on human GPR52 (Homo sapiens)?
Return: 11

Enquiry: I'm curious: which EC50 was measured for O=C(Nc1ccnnc1)c1nccnc1N1CC(Oc2ccc(F)c(Cl)c2)C1 tested on human GPR52 (Homo sapiens)?
Return: 10

Enquiry: What measured EC50 is associated with O=C(Nc1ccnnc1)c1nccnc1N1CC(Oc2cc(F)c(F)c(F)c2)C1 on human GPR52 (Homo sapiens)?
Return: 5

###

- TARGET_ENTITY: human GPR52 (Homo sapiens, UniProt Q9Y2T5)
- Construct: expressed in transfected cells; host or cells: CHO-K1
- Sequence (Q9Y2T5 whole entry): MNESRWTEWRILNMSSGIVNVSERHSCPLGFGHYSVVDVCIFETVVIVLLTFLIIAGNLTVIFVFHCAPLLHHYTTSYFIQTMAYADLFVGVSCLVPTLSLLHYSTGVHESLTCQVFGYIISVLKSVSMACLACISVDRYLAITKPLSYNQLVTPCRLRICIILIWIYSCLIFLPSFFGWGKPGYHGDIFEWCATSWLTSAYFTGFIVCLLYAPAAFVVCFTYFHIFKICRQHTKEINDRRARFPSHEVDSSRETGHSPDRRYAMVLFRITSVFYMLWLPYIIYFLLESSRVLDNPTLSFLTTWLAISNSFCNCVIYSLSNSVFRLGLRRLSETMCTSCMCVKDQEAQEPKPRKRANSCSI
- MEASUREMENT_PROTOCOL: HTRF assay for direct cAMP measurement
- Assay type: cell-based
- RUN_PARAMETERS: CHO-K1 cells stably expressing recombinant human GPR52, mean EC50
Documented EC50 across a set of molecules
Your answer should be a plain number; it is taken to be in nM.

Solved cases below.
MOLECULE | TARGET_ENTITY | UNIT_SYMBOL | OBSERVED_VALUE
CCc1cc(NC(=O)c2nccnc2N2CC(Oc3cc(F)cc(Cl)c3)C2)cnn1 [Example 18] | human GPR52 (Homo sapiens, UniProt Q9Y2T5) | nM | 6
CCc1cc(NC(=O)c2nccnc2N2CC(Oc3cc(F)cc(C(F)(F)F)c3)C2)ncn1 [Example 34] | human GPR52 (Homo sapiens, UniProt Q9Y2T5) | nM | 30
Cc1cc(NC(=O)c2nccnc2N2CC(Oc3cc(F)c(F)c(Cl)c3)C2)cnn1 [Example 14] | human GPR52 (Homo sapiens, UniProt Q9Y2T5) | nM | 4

Enquiry: Please provide the recorded EC50 for Cc1cc(NC(=O)c2nccnc2N2CC(Oc3cc(F)cc(C(F)F)c3)C2)ncn1 [Example 27] , tested on human GPR52 (Homo sapiens, UniProt Q9Y2T5).
Return: 11

###

- TARGET_ENTITY: aldehyde oxidase (Homo sapiens)
- Construct: endogenous in cells; host or cells: cryopreserved primary human hepatocytes
- Sequence (Q06278 whole entry): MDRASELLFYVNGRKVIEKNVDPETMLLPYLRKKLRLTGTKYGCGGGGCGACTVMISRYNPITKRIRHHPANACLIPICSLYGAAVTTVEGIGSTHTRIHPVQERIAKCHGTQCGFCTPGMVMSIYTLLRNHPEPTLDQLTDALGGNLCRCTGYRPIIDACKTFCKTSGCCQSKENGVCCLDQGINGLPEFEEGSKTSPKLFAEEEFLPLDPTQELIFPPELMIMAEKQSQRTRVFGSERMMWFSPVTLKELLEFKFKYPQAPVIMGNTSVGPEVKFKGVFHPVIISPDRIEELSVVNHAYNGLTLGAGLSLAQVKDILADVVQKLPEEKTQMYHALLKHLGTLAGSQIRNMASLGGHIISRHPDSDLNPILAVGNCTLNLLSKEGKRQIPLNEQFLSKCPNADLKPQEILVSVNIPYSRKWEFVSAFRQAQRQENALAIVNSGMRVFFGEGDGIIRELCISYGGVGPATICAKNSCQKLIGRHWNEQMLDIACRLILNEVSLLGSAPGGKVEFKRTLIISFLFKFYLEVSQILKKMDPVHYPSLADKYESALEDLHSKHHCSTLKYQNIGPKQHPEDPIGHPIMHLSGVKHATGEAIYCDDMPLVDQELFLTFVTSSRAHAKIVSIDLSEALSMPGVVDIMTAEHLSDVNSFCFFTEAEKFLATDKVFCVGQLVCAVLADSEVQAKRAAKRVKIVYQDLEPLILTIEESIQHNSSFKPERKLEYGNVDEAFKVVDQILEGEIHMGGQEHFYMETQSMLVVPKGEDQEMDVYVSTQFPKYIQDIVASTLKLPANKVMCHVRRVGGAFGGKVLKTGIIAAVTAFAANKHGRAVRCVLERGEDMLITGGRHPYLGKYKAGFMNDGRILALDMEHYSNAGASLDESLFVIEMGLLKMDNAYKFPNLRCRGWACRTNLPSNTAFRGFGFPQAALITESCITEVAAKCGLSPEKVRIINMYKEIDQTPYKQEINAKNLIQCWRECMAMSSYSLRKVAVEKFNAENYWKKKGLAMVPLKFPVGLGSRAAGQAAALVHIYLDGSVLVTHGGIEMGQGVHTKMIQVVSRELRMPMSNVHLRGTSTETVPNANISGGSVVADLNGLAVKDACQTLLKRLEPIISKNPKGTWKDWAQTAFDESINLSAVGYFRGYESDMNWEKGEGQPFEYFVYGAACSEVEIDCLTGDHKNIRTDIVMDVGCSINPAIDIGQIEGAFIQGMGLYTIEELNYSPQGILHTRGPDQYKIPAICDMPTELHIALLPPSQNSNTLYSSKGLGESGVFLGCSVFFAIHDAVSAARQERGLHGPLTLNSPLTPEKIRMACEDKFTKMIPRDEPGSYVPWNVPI
- MEASUREMENT_PROTOCOL: In vitro metabolite profiling in primary human hepatocytes with or without hydralazine
- Type: in vitro ADME
- RUN_PARAMETERS: sum of AO-formed metabolites
Measured Contribution of AO to oxidative metabolism values are reported for all entries that follow.
Give the quantity in %, number only.

COMPOUND | TARGET_ENTITY | OBSERVED_VALUE
Cc1cc(NC(=O)c2nccnc2N2CC(Oc3cc(F)cc(Cl)c3)C2)cnn1 [Example 10] | aldehyde oxidase (Homo sapiens) | 22
CCc1cc(NC(=O)c2nccnc2N2CC(Oc3ccc(F)c(F)c3)C2)cnn1 [Example 21] | aldehyde oxidase (Homo sapiens) | 67
Cc1cc(NC(=O)c2nccnc2N2CC(Oc3cc(F)cc(C(F)F)c3)C2)cnn1 [Example 11] | aldehyde oxidase (Homo sapiens) | 28
Cc1cc(NC(=O)c2nccnc2N2CC(Oc3cc(F)c(F)c(F)c3)C2)cnn1 [Example 15] | aldehyde oxidase (Homo sapiens) | 71
Cc1cc(NC(=O)c2nccnc2N2CC(Oc3cc(F)c(F)c(Cl)c3)C2)cnn1 [Example 14] | aldehyde oxidase (Homo sapiens) | 22
O=C(Nc1ccnnc1)c1nccnc1N1CC(Oc2cc(F)c(F)c(F)c2)C1 [Example 4] | aldehyde oxidase (Homo sapiens) | 53
Cc1cc(NC(=O)c2nccnc2N2CC(Oc3ccc(F)c(F)c3)C2)ncn1 [Example 29] | aldehyde oxidase (Homo sapiens) | 36
Cc1cc(NC(=O)c2nccnc2N2CC(Oc3ccc(F)c(F)c3)C2)cnn1 [Example 12] | aldehyde oxidase (Homo sapiens) | 56

We now examine a further compound.
Enquiry: Query (compound): Cc1cc(NC(=O)c2nccnc2N2CC(Oc3cc(F)cc(F)c3)C2)cnn1 [Example 13] ; field requested: Contribution of AO to oxidative metabolism
Return: 15
